- tested on: murine EPO receptor (Mus musculus)
- Construct: expressed in transfected cells; host or cells: FDC-P1/ER cells
- Sequence (P14753 25-507): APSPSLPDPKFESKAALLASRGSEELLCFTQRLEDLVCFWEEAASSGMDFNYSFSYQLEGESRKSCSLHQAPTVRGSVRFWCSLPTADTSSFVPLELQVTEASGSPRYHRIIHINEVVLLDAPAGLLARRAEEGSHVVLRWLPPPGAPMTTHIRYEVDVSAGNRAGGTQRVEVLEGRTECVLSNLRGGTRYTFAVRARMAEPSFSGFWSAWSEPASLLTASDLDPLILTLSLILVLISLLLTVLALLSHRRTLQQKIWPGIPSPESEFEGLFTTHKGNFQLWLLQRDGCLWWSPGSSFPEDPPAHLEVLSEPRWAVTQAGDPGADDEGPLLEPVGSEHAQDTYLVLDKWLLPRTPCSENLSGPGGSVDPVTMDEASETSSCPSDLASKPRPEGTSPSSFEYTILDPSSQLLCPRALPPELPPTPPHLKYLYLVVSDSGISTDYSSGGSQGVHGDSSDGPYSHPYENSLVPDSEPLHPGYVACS
- test summary: EPO dependent cell proliferation assay, FDC-P1/ER cells
- Assay type: cell-based
- particulars: FDC-P1/ER; [3H]thymidine incorporation; amount giving half of maximal activity obtained with EPO
Bridge positions count the residues as written; N and C are the ends. Ends that are not written are not given here.
recorded metric: EPO-ED50 murine receptor (nM)

Solved cases below.
Input line: Fill in the recorded EPO-ED50 murine receptor for this substance, with murine EPO receptor (Mus musculus) as test system: mPEG/Seq. I. D. No. 8, peak #1: mono-PEG conjugate of peptide SEQ ID NO: 8 with m-SPA-PEG (MW ca. 5000), one PEG coupled; control (GGTYSCHFGPLTWVCKPQGG-NH2; disulfide 6-15 (inferred); not fully specified; also: one mPEG 5000 (m-SPA-PEG) conjugated, site not given here) [reference compound]
Output line: 2000

Input line: Kindly state the measured EPO-ED50 murine receptor obtained for SAP2/Seq. I. D. No. 8 covalent dimer #2: PEG (SPA2, MW ca. 3400) dimer of peptide GGTYSCHFGPLTWVCKPQGG, lot #2, Example 3 (GGTYSCHFGPLTWVCKPQGG-NH2; disulfide 6-15 (inferred); not fully specified) with murine EPO receptor (Mus musculus).
Output line: 10

Input line: Please tell me: EPO-ED50 murine receptor of mPEG/Seq. I. D. No. 8, peak #2: conjugate of peptide SEQ ID NO: 8 with m-SPA-PEG (MW ca. 5000), two PEG molecules coupled; control (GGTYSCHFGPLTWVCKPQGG-NH2; disulfide 6-15 (inferred); not fully specified; also: two mPEG 5000 (m-SPA-PEG) conjugated, sites not given here) [reference compound] , system murine EPO receptor (Mus musculus)?
Output line: 1000

1: Ac-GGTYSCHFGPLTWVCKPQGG (Ac-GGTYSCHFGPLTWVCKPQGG-NH2; disulfide 6-15 (inferred)) [Seq. I. D. No. 20]
2: SAP2/Seq. I. D. No. 8 covalent dimer #1: PEG (SPA2, MW ca. 3400) dimer of peptide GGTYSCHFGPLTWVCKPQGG, lot #1, Example 2 (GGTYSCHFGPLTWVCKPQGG-NH2; disulfide 6-15 (inferred); not fully specified)
3: SAP2/Seq. I. D. No. 20 covalent dimer: PEG (SPA2) dimer of peptide Ac-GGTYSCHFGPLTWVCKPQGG, Example 5 (Ac-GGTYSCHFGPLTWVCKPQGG-NH2; disulfide 6-15 (inferred); also: PEG (SPA2) covalent dimer)
4: GGLYACHMGPMTWVCQPLRG [Seq. I. D. No. 14]
Input line: # desc sort on EPO-ED50 murine receptor across 4 substances Please list each label once, in the requested order.
Output line: 3, 4, 1, 2
